molecular target: NADPH oxidase 5 (Homo sapiens) (UniProt Q96PH1); assay: NOX5-dependent H2O2 signal modulators, primary screen, NOX inhibitor project, cell-based, HEK293-NOX5, Amplex Red fluorescence (AID 1161); details: HEK293-NOX5, ionomycin, 45 min, higher = more signal
Sequence (Q96PH1 whole entry, looked up): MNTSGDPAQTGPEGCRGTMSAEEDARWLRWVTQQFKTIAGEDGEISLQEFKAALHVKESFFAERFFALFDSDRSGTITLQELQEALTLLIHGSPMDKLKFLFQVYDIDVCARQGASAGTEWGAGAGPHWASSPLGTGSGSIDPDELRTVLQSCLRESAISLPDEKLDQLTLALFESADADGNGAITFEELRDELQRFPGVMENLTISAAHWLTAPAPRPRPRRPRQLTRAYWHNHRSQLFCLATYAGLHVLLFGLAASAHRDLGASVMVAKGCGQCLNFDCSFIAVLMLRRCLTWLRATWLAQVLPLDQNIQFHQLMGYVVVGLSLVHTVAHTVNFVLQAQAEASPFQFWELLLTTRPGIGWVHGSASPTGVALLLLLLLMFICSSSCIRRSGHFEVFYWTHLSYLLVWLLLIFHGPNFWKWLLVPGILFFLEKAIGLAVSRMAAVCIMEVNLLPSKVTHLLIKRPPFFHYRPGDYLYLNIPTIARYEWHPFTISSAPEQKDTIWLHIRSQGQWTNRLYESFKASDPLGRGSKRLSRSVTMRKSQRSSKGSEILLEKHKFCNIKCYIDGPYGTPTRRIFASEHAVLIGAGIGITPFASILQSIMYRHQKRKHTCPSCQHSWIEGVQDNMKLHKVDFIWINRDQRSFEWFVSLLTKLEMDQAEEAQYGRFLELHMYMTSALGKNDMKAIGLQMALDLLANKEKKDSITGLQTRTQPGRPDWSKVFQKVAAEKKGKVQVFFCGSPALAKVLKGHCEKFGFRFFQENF
Threshold check on z-score: at or above 0.04 gives Condition met, strictly below gives Condition not met.

Worked cases, answers included:
- Compound: "CCN1C(=O)[C@H]2[C@H]3[C@H](O)[C@H](O)CC(=O)[C@H]3CC[C@H]2C1=O"
  Measured target: "NADPH oxidase 5 (Homo sapiens) (UniProt Q96PH1)"
  Cat: "Condition not met"
- Compound: "C=CC[C@@H]1C=C[C@H](ON=C2[C@H]3CCn4c(=O)n(-c5ccccc5)c(=O)n4[C@H]3[C@H](O)[C@@H]3O[C@H]23)[C@@H](CO)O1"
  Measured target: "NADPH oxidase 5 (Homo sapiens) (UniProt Q96PH1)"
  Cat: "Condition met"
- Compound: "COc1cccc([C@H]2Oc3ccc(OC)cc3C(=NOC(C)CN3CCCCc4nc(C)c(C)cc43)[C@@H]2O)c1 (some centres not stated)"
  Measured target: "NADPH oxidase 5 (Homo sapiens) (UniProt Q96PH1)"
  Cat: "Condition not met"
- Compound: "CC(C)CON=C1C[C@@H](O)[C@@H](O)[C@@H]2[C@@H]3C(=O)N(C(C)(C)C)C(=O)[C@@H]3CC[C@H]12"
  Measured target: "NADPH oxidase 5 (Homo sapiens) (UniProt Q96PH1)"
  Cat: "Condition met"
- Compound: "COc1ccc(COC(=O)NN=C2C[C@@H](O)[C@@H](O)[C@@H]3[C@@H]4C(=O)N(C5CCCCC5)C(=O)[C@@H]4CC[C@H]23)cc1"
  Measured target: "NADPH oxidase 5 (Homo sapiens) (UniProt Q96PH1)"
  Cat: "Condition not met"

Now take the following compound into account.
Is it the case that CC(C)=CCCC(C)=CCON=C1C[C@@H](O)[C@@H](O)[C@@H]2[C@@H]3C(=O)N(C(C)(C)C)C(=O)[C@@H]3CC[C@H]12 has z-score reaching or exceeding 0.04?
Condition met

Reference for the values: PubChem BioAssay
